Answer each item with its documented Selectivity.
Experimental target: bovine pancreas α-chymotrypsin (Bos taurus)
Construct: bovine pancreas α-chymotrypsin; purchased Sigma Co; host or cells: bovine pancreas
Experiment: α-chymotrypsin-inhibitory activity (hydrolysis of succinyl-Ala-Ala-Pro-Phe-p-nitroanilide)
Type: biochemical
Test settings: Table 10; ratio of IC50 for bovine α-chymotrypsin to IC50 for human purulent sputum elastase

Here are 6 compounds. What values of Selectivity were reported for them?
1. O=c1oc(C(F)(F)F)nc2ccccc12 [compound 1, reference compound]
2. CC(C)Oc1nc2cc(NC(=O)[C@@H](NC(=O)OCc3ccccc3)C(C)C)ccc2c(=O)o1
3. CC(C)Oc1nc2cc(NC(=O)[C@H](CCC(=O)OCc3ccccc3)NC(=O)OCc3ccccc3)ccc2c(=O)o1
4. CC(C)Oc1nc2cc(NC(=O)[C@@H]3CCCN3C(=O)OCc3ccccc3)ccc2c(=O)o1
5. CC(C)Oc1nc2cc(NC(=O)[C@@H](NC(=O)[C@@H]3CCCN3C(=O)OCc3ccccc3)C(C)C)ccc2c(=O)o1
6. CC(C)Oc1nc2cc(NC(=O)[C@@H]3CCCN3C(=O)[C@H](C)NC(=O)OCc3ccccc3)ccc2c(=O)o1

Solution:
1. 0.10
2. 6.6
3. > 20
4. 3.9
5. 5.8
6. 5.6
